Listing: pIC50 of selected compounds
Molecular target: Cyclin-dependent kinase 4/cyclin D1 (Homo sapiens, UniProt P11802)
Sequence (P11802 whole entry): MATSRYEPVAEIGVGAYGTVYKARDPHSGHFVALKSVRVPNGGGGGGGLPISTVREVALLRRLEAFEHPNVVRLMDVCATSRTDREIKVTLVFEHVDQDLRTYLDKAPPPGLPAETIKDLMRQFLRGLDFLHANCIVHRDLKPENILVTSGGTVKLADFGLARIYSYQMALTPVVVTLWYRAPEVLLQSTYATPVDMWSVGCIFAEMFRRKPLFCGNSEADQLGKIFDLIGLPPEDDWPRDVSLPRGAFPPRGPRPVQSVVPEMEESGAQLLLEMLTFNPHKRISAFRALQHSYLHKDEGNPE
Sequence (P24385 whole entry, further chain): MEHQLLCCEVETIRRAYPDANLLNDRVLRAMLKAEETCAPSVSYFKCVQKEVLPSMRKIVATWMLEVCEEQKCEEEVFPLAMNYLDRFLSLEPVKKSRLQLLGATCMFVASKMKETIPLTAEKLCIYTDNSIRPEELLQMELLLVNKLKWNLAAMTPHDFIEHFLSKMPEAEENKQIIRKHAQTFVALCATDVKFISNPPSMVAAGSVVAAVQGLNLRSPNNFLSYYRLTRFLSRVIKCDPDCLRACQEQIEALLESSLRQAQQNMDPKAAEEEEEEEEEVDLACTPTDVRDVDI
Test: In vitro inhibitory activity against human cyclin dependent kinase (CDK4/D1)
Format: protein-complex assay
// pIC50 is dimensionless: -log10 of concentration (M)

Previously resolved entries follow.
>  <Compound>
CC(C)(C)Nc1nc(C(F)(F)F)nc2ccccc12

>  <Endpoint value>
4.84

$$$$
>  <Compound>
CC(Nc1nc(C(F)(F)F)nc2ccccc12)c1ccccc1 (configuration not stated)

>  <Endpoint value>
4.23

$$$$
>  <Compound>
CC(C)(C)Nc1nc(C(F)(F)F)nc2ccc(NC=O)cc12

>  <Endpoint value>
4.85

$$$$
>  <Compound>
C[C@@H](Nc1nc(C(F)(F)F)nc2ccccc12)c1ccccc1

>  <Endpoint value>
4.41

$$$$

Problem: For the compound `CC(C)(C)Nc1nc(C(F)(F)F)nc2ccc(O)cc12` , what pIC50 is on record?
Solution: 4.74

====

Target: Cyclin-dependent kinase 4/cyclin D1 (Homo sapiens, UniProt P11802)
Test: In vitro inhibitory activity against human cyclin dependent kinase (CDK4/D1)
Attribute measured: IC50

>  <Smiles code>
CC(C)(C)Nc1ncnc2ccccc12

>  <IC50>
> 248 µM

$$$$

Problem: Any idea what IC50 was measured for `CC(C)(CO)Nc1nc(C(F)(F)F)nc2ccccc12` ?
Solution: 15 µM

Problem: Looking for the measured IC50 of `CC(C)(C)Nc1nc(C(F)(F)F)nc2ccc(-c3ccc(Cl)cc3)cc12` , can you help?
Solution: > 26 µM

Problem: Return reported IC50; argument: `CC(C)(C)Nc1nc(C(F)(F)F)nc2ccc(-c3cccs3)cc12`
Solution: 6.4 µM

Problem: Fill in: IC50 of `CC(C)(C)Nc1nc(C(F)(F)F)nc2ccc(-c3ccsc3)cc12` is ___
Solution: 3.55 µM

====

Biological target: Cyclin-dependent kinase 4/cyclin D1 (Homo sapiens)
Assay: In vitro inhibitory activity against human cyclin dependent kinase (CDK4/D1)
Below is a list of entries, each paired with its recorded pIC50 value.
Keep it numeric: pIC50 is minus log10 of the concentration in mol/L.

Guide cases for pIC50, answers given:
>  <Molecule>
CC(C)(C)Nc1nc(C(F)(F)F)nc2ccc(-c3ccccc3)cc12

>  <Attribute measured>
pIC50

>  <Endpoint value>
5.11

$$$$
>  <Molecule>
CC(C)(C)Nc1nc(C(Cl)(Cl)Cl)nc2ccccc12

>  <Attribute measured>
pIC50

>  <Endpoint value>
4.92

$$$$
>  <Molecule>
CC(C)(C)Nc1nc(C(F)(F)F)nc2ccc(-c3cccnc3)cc12

>  <Attribute measured>
pIC50

>  <Endpoint value>
5.08

$$$$
>  <Molecule>
CC(C)(C)Nc1nc(C(F)(F)F)nc2ccc(-c3ccc(O)cc3)cc12

>  <Attribute measured>
pIC50

>  <Endpoint value>
4.96

$$$$
>  <Molecule>
CC(C)(C)Nc1nc(C(F)(F)F)nc2ccc(-c3cccc(O)c3)cc12

>  <Attribute measured>
pIC50

>  <Endpoint value>
4.92

$$$$

Problem: Name the reported pIC50 value associated with the molecule CCCC(C)Nc1nc(C(F)(F)F)nc2ccccc12 (stereo not drawn)
Solution: 3.92

Problem: So what's the measured pIC50 for this one? `CCC(C)(C)Nc1nc(C(F)(F)F)nc2ccccc12`
Solution: 4.77

====

Target: Cyclin-dependent kinase 2/cyclin E (Homo sapiens)
Assay: In vitro inhibitory activity against human cyclin dependent kinase (CDK2/E)
# pIC50 annotations
The quantity pIC50 is defined as the negative base-10 logarithm of the molar concentration.

>  <Molecule>
C[C@H](Nc1nc(C(F)(F)F)nc2ccccc12)c1ccccc1

>  <pIC50>
4.51

$$$$
>  <Molecule>
CC(C)(C)Nc1nc(C(F)(F)F)nc2ccc(-c3cccs3)cc12

>  <pIC50>
5.93

$$$$
>  <Molecule>
CC(C)(C)Nc1nc(C(F)(F)F)nc2ccc(-c3ccc(-c4cccnc4)cc3)cc12

>  <pIC50>
5.92

$$$$

Problem: Could you share which pIC50 value was measured for `Fc1cccc(CNc2nc(C(F)(F)F)nc3ccccc23)c1` ?
Solution: 4.81

Problem: Give the measured pIC50 of `CC(C)(C)Nc1nc(C(F)(F)F)nc2ccc(C(F)(F)F)cc12` .
Solution: 6.10

Problem: Look at this molecule and give its reported pIC50. OCC1CCCN1c1nc(C(F)(F)F)nc2ccccc12 (centres undefined)
Solution: 4.83

Problem: Which pIC50 is reported for this molecule? `C[C@@H](Nc1nc(C(F)(F)F)nc2ccccc12)c1ccccc1`
Solution: 5.49

Problem: Entry `CC(C)(C)Nc1nc(C(Cl)(Cl)Cl)nc2ccccc12` has what pIC50?
Solution: 5.21

Problem: What does the record list as pIC50 for `CC(C)(C)Nc1nc(C(F)(F)F)nc2ccc(NC=O)cc12` ?
Solution: 6.03

Problem: Return reported pIC50; argument: `CC(C)(C)Nc1nc(C(F)(F)F)nc2ccc(-c3cccc(C(N)=O)c3)cc12`
Solution: 5.89

Problem: pIC50 lookup needed for `Fc1cc(F)cc(CNc2nc(C(F)(F)F)nc3ccccc23)c1` , thanks.
Solution: 5.05

Problem: Could you tell me which pIC50 is on file for `CC(C)(C)Nc1nc(C(F)(F)F)nc2ccc(-c3cccc(O)c3)cc12` ?
Solution: 6.00

Problem: Field request: pIC50 | item: `CC(C)(C)Nc1nc(C(F)(F)F)nc2ccc(-c3ccc(O)cc3)cc12`
Solution: 6.15

Problem: Param item = `COc1ccccc1-c1ccc2nc(C(F)(F)F)nc(NC(C)(C)C)c2c1` ; retrieve measured pIC50.
Solution: 6.00

Problem: # pIC50 lookup, item `CCC(C)(C)Nc1nc(C(F)(F)F)nc2ccccc12`
Solution: 5.85

Problem: Find the recorded pIC50 belonging to `CC(C)(C)Nc1nc(C(N)=O)nc2ccccc12` and report it.
Solution: 3.78

Problem: Reported pIC50, molecule `CC(C)(C)Nc1nc(C(F)(F)F)nc2ccc(O)cc12` : ____
Solution: 5.94

Problem: Which pIC50 reading was recorded for the molecule `CC(C)(CO)Nc1nc(C(F)(F)F)nc2ccccc12` ?
Solution: 5.64

Problem: Please report the recorded pIC50 for CC(Nc1nc(C(F)(F)F)nc2ccccc12)c1ccc(F)cc1 (centres undefined) .
Solution: 4.78

Problem: For `CC(C)(C)Nc1nc(C(F)(F)F)nc2ccc(-c3ccc(N)cc3)cc12` , what is its reported pIC50?
Solution: 5.96

Problem: Give its pIC50 value. Item: `CC(C)(C)Nc1nc(C(F)(F)F)nc2ccc(-c3ccccc3)cc12`
Solution: 5.74

Problem: Given the entry `CC(C)(Nc1nc(C(F)(F)F)nc2ccccc12)c1ccccc1` , report its measured pIC50.
Solution: 4.85

Problem: Looking for the measured pIC50 of `CC(C)(C)Nc1nc(C(F)(F)F)nc2ccc(-c3ccsc3)cc12` , can you help?
Solution: 6.26

Problem: Could you share which pIC50 value was measured for `CC(C)(C)Nc1nc(C(F)(F)F)nc2ccc(-c3ccc(Cl)cc3)cc12` ?
Solution: 5.59

Problem: Suppose we examine the molecule `CC(C)(C)Nc1nc(C(F)(F)F)nc2ccccc12` ; what pIC50 value has been reported?
Solution: 5.82

Problem: Could you tell me which pIC50 is on file for `C#CC(C)(C)Nc1nc(C(Cl)(Cl)Cl)nc2ccccc12` ?
Solution: 4.87

Problem: Looking for the measured pIC50 of `COc1cccc(-c2ccc3nc(C(F)(F)F)nc(NC(C)(C)C)c3c2)c1` , can you help?
Solution: 5.48

====

Target: Cyclin-dependent kinase 1/cyclin B (Homo sapiens, UniProt P06493)
Experiment: Inhibition of human cyclin dependent kinase 1 (CDK1/B)
Format: protein-complex assay
Attribute measured: IC50 (µM)
Give just the numeric value; µM need not be written.

Problem: Given the entry `C#CC(C)(C)Nc1nc(C(Cl)(Cl)Cl)nc2ccccc12` , report its measured IC50.
Solution: 35

====

Consider the following molecules and their measured IC50 readings.
Test system: AG1523
Experiment: Inhibition of SRB AG1523 cancer cell proliferation
Format: functional, cell-based
Conditions: Homo sapiens, in the assay text read “normal human fibroblast cell” for “cancer cell”

>  <Smiles code>
CC(C)(C)Nc1nc(C(F)(F)F)nc2ccc(-c3ccsc3)cc12

>  <IC50>
> 28 µM

$$$$

Problem: Quick check: IC50 of `CC(C)(C)Nc1nc(C(F)(F)F)nc2ccc(O)cc12` ?
Solution: > 18 µM

Problem: What does the record list as IC50 for `CC(C)(C)Nc1nc(C(F)(F)F)nc2ccc(C(F)(F)F)cc12` ?
Solution: > 59 µM

Problem: Field request: IC50 | item: `CC(C)(C)Nc1nc(C(F)(F)F)nc2ccccc12`
Solution: > 74 µM
